System: HCMV Strain AD169 in MRC-5 cells
Assay: Viral qPCR assay HCMV (V0/V1, V2/V3), EC50
Assay type: cell-based
Settings: Human betaherpesvirus 5, AD169, MRC5, viral qPCR assay of Example 191; read-out: HCMV Cell (EC50)
value type: EC50 (nM)
Give bare numbers, in nM.

The following compounds have reported results that may help.
[[record]]
mol_smiles = "O=C(NCc1ccc(Cl)cc1)c1cc(O[C@H]2CCN3C(=O)OC[C@@H]3C2)c(-c2cnco2)cn1"
target_of_assay = "HCMV Strain AD169 in MRC-5 cells"
data_value = 98.7

[[record]]
mol_smiles = "O=C(c1cc(O[C@H]2CCN3C(=O)OC[C@@H]3C2)c(-c2cnn(C(F)F)c2)cn1)N(CO)Cc1ccc(Cl)cc1"
target_of_assay = "HCMV Strain AD169 in MRC-5 cells"
data_value = 183

[[record]]
mol_smiles = "CC(C)(O)Cc1cnc(C(=O)NCc2ccc(Cl)cc2)cc1O[C@H]1CCN2C(=O)OC[C@@H]2C1"
target_of_assay = "HCMV Strain AD169 in MRC-5 cells"
data_value = 396


We next turn to a different compound, shown below.
Prompt: Given "O=C(NCc1ccc(Cl)cc1)c1cc(O[C@H]2CCN3C(=O)OC[C@@H]3C2)c(-c2cnn3c2COCC3)cn1" , state its recorded EC50.
Response: 132

----------
Observed IC50, system varicella zoster virus DNA polymerase (Varicella-zoster virus).
# do not omit the unit; it follows the number

The following compounds have reported results that may help.
[[record]]
compound = "COCCn1ccc(-c2cnc(C(=O)NCc3ccc(Cl)cc3)cc2O[C@H]2CCN3C(=O)OC[C@@H]3C2)n1 [Compound 28]"
target_of_assay = "varicella zoster virus DNA polymerase (Varicella-zoster virus)"
value_type = "IC50"
data_value = "12.7 nM"

[[record]]
compound = "O=C(NCc1ccc(F)c(F)c1F)c1cc(O[C@H]2CCN3C(=O)OC[C@@H]3C2)c(-c2cnn(C(F)F)c2)cn1 [Compound 87]"
target_of_assay = "varicella zoster virus DNA polymerase (Varicella-zoster virus)"
value_type = "IC50"
data_value = "38.8 nM"

[[record]]
compound = "Cn1cc(-c2cnc(C(=O)NCc3ccc(F)c(F)c3F)cc2O[C@H]2CCN3C(=O)OC[C@@H]3C2)cn1 [Compound 94]"
target_of_assay = "varicella zoster virus DNA polymerase (Varicella-zoster virus)"
value_type = "IC50"
data_value = "21.4 nM"

[[record]]
compound = "O=C(NCc1ccc(Cl)cc1)c1cc(O[C@H]2CCN3C(=O)OC[C@@H]3C2)c(-c2cnn(CC(F)F)c2)cn1 [Compound 27]"
target_of_assay = "varicella zoster virus DNA polymerase (Varicella-zoster virus)"
value_type = "IC50"
data_value = "12.5 nM"

[[record]]
compound = "O=C(NCc1ccc(Cl)cc1)c1cc(O[C@H]2CCN3C(=O)OC[C@@H]3C2)c(-c2cnc(C(F)F)o2)cn1 [Compound 148]"
target_of_assay = "varicella zoster virus DNA polymerase (Varicella-zoster virus)"
value_type = "IC50"
data_value = "4.47 nM"


Take each entry in turn and give its IC50.
1. CC(=O)N1CCC(Oc2cc(C(=O)NCc3ccc(Cl)cc3)ncc2/C=C/CO)CC1 [Compound 73]
2. Cc1nsc(-c2cnc(C(=O)NCc3ccc(Cl)cc3)cc2O[C@H]2CCN3C(=O)OC[C@@H]3C2)n1 [Compound 39]

Response:
1. 45 nM
2. 1.25 nM
